For each record, write down the corresponding SI (Selectivity Index).
System: HCT-116 cells
Experiment: MTT cytotoxicity assay, HCT-116
Format: cell-based, human
Conditions: IC50 WRL-68 / IC50 HCT-116, 24 hours
API doc: respond with a numeric literal and nothing else, no unit.

Challenge: Fill in the blank: the reported SI (Selectivity Index) of COC(=O)c1ccc2[nH]c(-c3cc(F)ccc3O)nc2c1 [MBIC] is ____.
Response given: 3.70

Challenge: Repeat with COC(=O)Nc1nc2ccc(C(=O)c3cccs3)cc2[nH]1 [Nocodazole]
Response given: 3.20

Challenge: Moving on to CC(=O)O[C@H]1C(=O)[C@@]2(C)[C@H]([C@H](OC(=O)c3ccccc3)[C@]3(O)C[C@H](OC(=O)[C@H](O)[C@@H](NC(=O)c4ccccc4)c4ccccc4)C(C)=C1C3(C)C)[C@]1(OC(C)=O)CO[C@@H]1C[C@@H]2O [Paclitaxel]
Response given: 2.17

Challenge: And for N.N.[Cl][Pt][Cl] [Cisplatin] ?
Response given: 2.57

Challenge: Would you kindly repeat that for COc1cccc2c1C(=O)c1c(O)c3c(c(O)c1C2=O)C[C@@](O)(C(=O)CO)C[C@@H]3O[C@H]1C[C@H](N)[C@H](O)[C@H](C)O1 [Doxorubicin] ?
Response given: 3.91

###

So I've got a bunch of molecules here, and I need their IC50 values.
System: HCT-116 cells
Assay: MTT cytotoxicity assay, HCT-116
Format: cell-based, human
Conditions: Homo sapiens; HCT-116, 48 hours, MTT
Numeric answer only, unit µM assumed.

Challenge: Any idea what IC50 was measured for "COC(=O)c1ccc2[nH]c(-c3cc(F)ccc3O)nc2c1" ?
Response given: 2.01

Challenge: What do you get for "CC(=O)O[C@H]1C(=O)[C@@]2(C)[C@H]([C@H](OC(=O)c3ccccc3)[C@]3(O)C[C@H](OC(=O)[C@H](O)[C@@H](NC(=O)c4ccccc4)c4ccccc4)C(C)=C1C3(C)C)[C@]1(OC(C)=O)CO[C@@H]1C[C@@H]2O" ?
Response given: 1.09

Challenge: Can you handle "COC(=O)Nc1nc2ccc(C(=O)c3cccs3)cc2[nH]1" next?
Response given: 1.81

Challenge: // same read-out, input: "COc1cccc2c1C(=O)c1c(O)c3c(c(O)c1C2=O)C[C@@](O)(C(=O)CO)C[C@@H]3O[C@H]1C[C@H](N)[C@H](O)[C@H](C)O1"
Response given: 0.47

###

Tested on: A549 cells
Experiment: MTT cytotoxicity assay, A549
Format: cell-based, human
Conditions: IC50 WRL-68 / IC50 A549, 24 hours
Property: SI (Selectivity Index)
Reply with the value as a number alone.

Challenge: Param readout= SI (Selectivity Index); system= A549 cells; entry= N.N.[Cl][Pt][Cl] [Cisplatin] ; returns value.
Response given: 0.54

Challenge: And then "CC(=O)O[C@H]1C(=O)[C@@]2(C)[C@H]([C@H](OC(=O)c3ccccc3)[C@]3(O)C[C@H](OC(=O)[C@H](O)[C@@H](NC(=O)c4ccccc4)c4ccccc4)C(C)=C1C3(C)C)[C@]1(OC(C)=O)CO[C@@H]1C[C@@H]2O" , what is it?
Response given: 2.37

Challenge: "COc1cccc2c1C(=O)c1c(O)c3c(c(O)c1C2=O)C[C@@](O)(C(=O)CO)C[C@@H]3O[C@H]1C[C@H](N)[C@H](O)[C@H](C)O1" , same question.
Response given: 10.17

Challenge: Queued: "COC(=O)Nc1nc2ccc(C(=O)c3cccs3)cc2[nH]1"
Response given: 1.00

Challenge: Also, "COC(=O)c1ccc2[nH]c(-c3cc(F)ccc3O)nc2c1" please.
Response given: 7.82

###

Test system: A549 cells
Assay: MTT cytotoxicity assay, A549
Format: cell-based, human
Conditions: Homo sapiens; A549, 24 hours, MTT
Kindly state pIC50 for each of the entries shown.
# pIC50: negative log10 of molar concentration; output just the value

Challenge: Look up pIC50 for this compound: COc1cccc2c1C(=O)c1c(O)c3c(c(O)c1C2=O)C[C@@](O)(C(=O)CO)C[C@@H]3O[C@H]1C[C@H](N)[C@H](O)[C@H](C)O1 [Doxorubicin]
Response given: 6.46

Challenge: # repeat for COC(=O)Nc1nc2ccc(C(=O)c3cccs3)cc2[nH]1 [Nocodazole]
Response given: 4.92

Challenge: What would you report for COC(=O)c1ccc2[nH]c(-c3cc(F)ccc3O)nc2c1 [MBIC] ?
Response given: 5.89

Challenge: Same again, this time with CC(=O)O[C@H]1C(=O)[C@@]2(C)[C@H]([C@H](OC(=O)c3ccccc3)[C@]3(O)C[C@H](OC(=O)[C@H](O)[C@@H](NC(=O)c4ccccc4)c4ccccc4)C(C)=C1C3(C)C)[C@]1(OC(C)=O)CO[C@@H]1C[C@@H]2O [Paclitaxel]
Response given: 5.55

###

Give SI (Selectivity Index) for every item shown.
Test system: HeLa cells
Test: MTT cytotoxicity assay, HeLa
Assay type: cell-based, human
Settings: IC50 WRL-68 / IC50 HeLa, 48 hours

Challenge: # value lookup — system HeLa cells, readout SI (Selectivity Index), item "CC(=O)O[C@H]1C(=O)[C@@]2(C)[C@H]([C@H](OC(=O)c3ccccc3)[C@]3(O)C[C@H](OC(=O)[C@H](O)[C@@H](NC(=O)c4ccccc4)c4ccccc4)C(C)=C1C3(C)C)[C@]1(OC(C)=O)CO[C@@H]1C[C@@H]2O"
Response given: 5.98

Challenge: Likewise for N.N.[Cl][Pt][Cl] [Cisplatin] ?
Response given: 1.17

Challenge: "COC(=O)c1ccc2[nH]c(-c3cc(F)ccc3O)nc2c1" , same question.
Response given: 37.68

Challenge: Note, next up: "COC(=O)Nc1nc2ccc(C(=O)c3cccs3)cc2[nH]1"
Response given: 3.40

Challenge: Next molecule: "COc1cccc2c1C(=O)c1c(O)c3c(c(O)c1C2=O)C[C@@](O)(C(=O)CO)C[C@@H]3O[C@H]1C[C@H](N)[C@H](O)[C@H](C)O1"
Response given: 5.79

###

Experiment: Annexin V-FITC/PI apoptosis detection by flow cytometry
Assay type: cell-based, human
Conditions: human, HeLa cells, 0.42 μM, read-out: viable cells (Q3, annexin V- PI-)
Property: viability at 24 h, 0.42 µM
Please report the result as a number followed by the unit.

Challenge: Could you tell me which viability at 24 h, 0.42 µM is on file for "COC(=O)c1ccc2[nH]c(-c3cc(F)ccc3O)nc2c1" ?
Response given: 36.2%

###

Tested on: HeLa cells
Assay: MTT cytotoxicity assay, HeLa
Assay type: cell-based, human
Settings: HeLa, 48 hours, MTT
Description: The human cervical cancer cell-line, HeLa (CCL-2.2; ATCC, Manassas, VA), HCT-116 (CCL-247; ATCC, Manassas, VA), A549 (CCL-185; ATCC, Manassas, VA), HepG-2 (HB-8065; ATCC, Manassas, VA) and WRL-68 (CL-48; ATCC, Manassas, VA), were obtained from American Type Culture Collection (ATCC). […] Cytotoxicity of MBIC was estimated by MTT assay. […] The colorimetric assay was quantified at 570 nm wavelength using Chameleon V microplate reader (Hidex, Turku, Finland). […]
Property: IC50
Remember to follow the number with its unit.

Challenge: Look up IC50 for this compound: N.N.[Cl][Pt][Cl] [Cisplatin]
Response given: 9.02 µM

###

System: HepG-2 cells
Assay: MTT cytotoxicity assay, HepG-2
Format: cell-based, human
Conditions: Homo sapiens, HepG2; HepG-2, 24 hours, MTT
Text: The human cervical cancer cell-line, HeLa (CCL-2.2; ATCC, Manassas, VA), HCT-116 (CCL-247; ATCC, Manassas, VA), A549 (CCL-185; ATCC, Manassas, VA), HepG-2 (HB-8065; ATCC, Manassas, VA) and WRL-68 (CL-48; ATCC, Manassas, VA), were obtained from American Type Culture Collection (ATCC). […] Cytotoxicity of MBIC was estimated by MTT assay. […] The colorimetric assay was quantified at 570 nm wavelength using Chameleon V microplate reader (Hidex, Turku, Finland). […]
Property: IC50 (µM)
Write the number in µM without appending the unit.

Challenge: For the record "COC(=O)c1ccc2[nH]c(-c3cc(F)ccc3O)nc2c1" , what value of IC50 is listed for HepG-2 cells?
Response given: 2.92

Challenge: Continue with "COC(=O)Nc1nc2ccc(C(=O)c3cccs3)cc2[nH]1"
Response given: 10.7

Challenge: Here is the next compound: "COc1cccc2c1C(=O)c1c(O)c3c(c(O)c1C2=O)C[C@@](O)(C(=O)CO)C[C@@H]3O[C@H]1C[C@H](N)[C@H](O)[C@H](C)O1"
Response given: 8.04

Challenge: Entry to check: "CC(=O)O[C@H]1C(=O)[C@@]2(C)[C@H]([C@H](OC(=O)c3ccccc3)[C@]3(O)C[C@H](OC(=O)[C@H](O)[C@@H](NC(=O)c4ccccc4)c4ccccc4)C(C)=C1C3(C)C)[C@]1(OC(C)=O)CO[C@@H]1C[C@@H]2O"
Response given: 2.81
